Values were extracted from ChEMBL document CHEMBL5725790.

target: Tyrosine-protein kinase BTK (Homo sapiens, UniProt Q06187); test: Enzyme Assay: The following describes a microfluidic, off-chip mobility shift kinase assay used to measure inherent potency of compounds against BTK enzyme. Compounds described by embodiments of the present invention were assayed using this protocol and the data from the same is recorded in Table 2 within the column labeled: Time Dependent BTK Enzyme Assay IC50. […] Stopped reactions were monitored at −2 PSI, −3000 V/−700 V in a LabChip 3000 plate reader from Caliper Life Sciences, a PerkinElmer Company (Hopkinton, Mass.), and the activity was measured by off-chip mobility shift assay measuring the charge/mass difference between substrate and product resulting from peptide phosphorylation. IC50 and efficacy were determined by plotting log [Inhibitor] vs. % Activity in GeneData Screener (Basel, Switzerland). Compounds described by embodiments of the present invention were assayed using this protocol and the data from the same is recorded in Table 2 within the column labeled: Time Dependent […] BTK Enzyme Assay IC50.
Sequence (Q06187 whole entry): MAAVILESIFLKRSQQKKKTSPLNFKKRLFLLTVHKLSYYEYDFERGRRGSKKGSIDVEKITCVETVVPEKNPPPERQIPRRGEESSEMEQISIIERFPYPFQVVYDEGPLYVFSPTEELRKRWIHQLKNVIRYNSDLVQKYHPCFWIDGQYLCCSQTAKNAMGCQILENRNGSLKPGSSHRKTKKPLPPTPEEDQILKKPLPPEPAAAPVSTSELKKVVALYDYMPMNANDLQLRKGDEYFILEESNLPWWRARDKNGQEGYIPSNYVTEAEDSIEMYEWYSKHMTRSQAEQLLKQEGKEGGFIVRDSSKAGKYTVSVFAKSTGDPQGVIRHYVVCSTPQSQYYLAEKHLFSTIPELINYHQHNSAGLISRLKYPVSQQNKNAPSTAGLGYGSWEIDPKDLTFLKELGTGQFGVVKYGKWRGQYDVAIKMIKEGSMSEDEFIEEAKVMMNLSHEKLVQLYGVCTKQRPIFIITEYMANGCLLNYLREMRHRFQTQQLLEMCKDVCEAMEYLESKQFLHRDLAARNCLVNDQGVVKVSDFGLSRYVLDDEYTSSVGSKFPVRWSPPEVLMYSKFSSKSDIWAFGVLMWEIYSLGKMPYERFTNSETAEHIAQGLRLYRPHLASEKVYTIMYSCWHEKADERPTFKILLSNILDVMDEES
pIC50: −log10 of the molar value.
measuredEndpoint: pIC50

Problem: Supply recorded pIC50 for `N#CC1(C(=O)Nc2cccc(-c3c(N)ncnc3Oc3ccc(Oc4ccccc4)cc3)c2)CC1` here.
Solution: < 6.00

Problem: Supply recorded pIC50 for `CCC(=O)Nc1cccc(Oc2ccnc(C(N)=O)c2-c2ccc(Oc3ccccc3)cc2)c1` here.
Solution: < 6.00

Problem: Supply recorded pIC50 for `C=CC(=O)Nc1cccc(Oc2ncnc(N)c2-c2cnn(Cc3cccc(S(C)(=O)=O)c3)c2)c1` here.
Solution: > 6.00

Problem: Supply recorded pIC50 for `Nc1ncnc(NC2CC3(C2)CN(S(=O)(=O)CCCl)C3)c1-c1ccc(Oc2ccccc2)cc1` here.
Solution: > 7.00

Problem: Supply recorded pIC50 for `CCC(=O)Nc1cccc(Oc2ccncc2-c2ccc(Oc3ccccc3)cc2)c1` here.
Solution: < 6.00

Problem: Supply recorded pIC50 for `C=CC(=O)Nc1cccc(Oc2ncnc(N)c2-c2ccc(Oc3ccccc3)cc2)c1F` here.
Solution: > 7.00

Problem: Supply recorded pIC50 for `C=CC(=O)Nc1cncc(Oc2ncnc(N)c2-c2ccc(Oc3ccc(C#N)cc3)cc2)c1` here.
Solution: > 6.00

Problem: Supply recorded pIC50 for `C=CC(=O)N1CC2(CC(Nc3ncnc(N)c3-c3cnn(Cc4ccncc4)c3)C2)C1` here.
Solution: < 6.00
